System: Prothrombin (Homo sapiens) | Read-out: Ki
Just the number please, in nM, no unit attached.

Solved entries (count: 3):
O=C(O)CN[C@@H](C(=O)N1CCC[C@H]1C(=O)NCC#Cc1cnc[nH]1)C(c1ccccc1)c1ccccc1 : 44
O=C(O)CN[C@H](CC1CCCCC1)C(=O)N1CCC[C@H]1C(=O)NCC#Cc1cnc[nH]1 : 480
NS(=O)(=O)N[C@@H](C(=O)N1CCC[C@H]1C(=O)NCC#Cc1c[nH]cn1)C(c1ccccc1)c1ccccc1 : 0.8

Next compound, Ki to be filled in.
Returns the measured Ki for the input compound. Input: O=C(NCC#Cc1cnc[nH]1)[C@@H]1CCCN1C(=O)[C@H](NS(=O)(=O)Cc1ccccc1)C(c1ccccc1)c1ccccc1
3

###

Assay: Maximum time (Tmax) required to reach Cmax in rats
Format: ADME, organism-based
Conditions: rat, in vivo
measure: Tmax (h)
Just the number please, in h, no unit attached.

CC(C)(C)OC(=O)N[C@@H](C(=O)N1CCC[C@H]1C(=O)NCC#Cc1c[nH]cn1)C(c1ccccc1)c1ccccc1 : 1

Next compound, Tmax to be filled in.
Returns the measured Tmax for the input compound. Input: COC(=O)N[C@@H](C(=O)N1CCC[C@H]1C(=O)NCC#Cc1c[nH]cn1)C(c1ccccc1)c1ccccc1
1

###

System: UniProt P00760 | Read-out: Ki
Sequence (P00760 whole entry): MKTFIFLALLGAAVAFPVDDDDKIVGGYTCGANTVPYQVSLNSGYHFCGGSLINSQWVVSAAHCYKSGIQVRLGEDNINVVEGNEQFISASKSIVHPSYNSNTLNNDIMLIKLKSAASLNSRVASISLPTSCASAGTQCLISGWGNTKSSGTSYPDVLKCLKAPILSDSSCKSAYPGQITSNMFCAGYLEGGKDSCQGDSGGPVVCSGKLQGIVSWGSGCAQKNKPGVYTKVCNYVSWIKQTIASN
Just the number please, in µM, no unit attached.

O=C(NCC#Cc1cnc[nH]1)[C@@H]1CCCN1C(=O)[C@H](NS(=O)(=O)Cc1ccccc1)C(c1ccccc1)c1ccccc1 : 24

Next compound, Ki to be filled in.
Given the entry NS(=O)(=O)N[C@@H](C(=O)N1CCC[C@H]1C(=O)NCC#Cc1c[nH]cn1)C(c1ccccc1)c1ccccc1 , what Ki was observed with UniProt P00760?
18

###

List of Cmax values.
Experiment: Peak plasma concentration (Cmax) was determined
Type: ADME, organism-based
Conditions: rat
Please report the result as a number followed by the unit.

Solved entries (count: 3):
CC(=O)N[C@@H](C(=O)N1CCC[C@H]1C(=O)NCC#Cc1cnc[nH]1)C(c1ccccc1)c1ccccc1 : 1600 nM
COC(=O)N[C@@H](C(=O)N1CCC[C@H]1C(=O)NCC#Cc1c[nH]cn1)C(c1ccccc1)c1ccccc1 : 23600 nM
O=C(O)CN[C@H](CC1CCCCC1)C(=O)N1CCC[C@H]1C(=O)NCC#Cc1cnc[nH]1 : 1600 nM

Next compound, Cmax to be filled in.
Returns the measured Cmax for the input compound. Input: O=C(O)CN[C@@H](C(=O)N1CCC[C@H]1C(=O)NCC#Cc1cnc[nH]1)C(c1ccccc1)c1ccccc1
1600 nM

###

Assay: Bioavailability
Format: ADME, organism-based
Conditions: eutheria, in vivo
measure: bioavailability (%)
Just the number please, in %, no unit attached.

Returns the measured bioavailability for the input compound. Input: COC(=O)N[C@@H](C(=O)N1CCC[C@H]1C(=O)NCC#Cc1c[nH]cn1)C(c1ccccc1)c1ccccc1
58

###

Biological target: Prothrombin (Homo sapiens, UniProt P00734)
pKi: −log10 of the molar value.
# cutoff 8 applies to pKi; >= gives 1.0, < gives 0.0

Recorded results for 2 compounds are shown here.
CC(=O)N[C@@H](C(=O)N1CCC[C@H]1C(=O)NCC#Cc1cnc[nH]1)C(c1ccccc1)c1ccccc1 : 0.0
CS(=O)(=O)N[C@@H](C(=O)N1CCC[C@H]1C(=O)NCC#Cc1c[nH]cn1)C(c1ccccc1)c1ccccc1 : 1.0

Please check the record Cn1cncc1C#CCNC(=O)[C@@H]1CCCN1C(=O)[C@@H](Cc1ccccc1)NC(=O)OC(C)(C)C and state if its pKi is at or above 8.
0.0

What would you report for CC(C)(C)OC(=O)N[C@H](Cc1ccccc1)C(=O)N1CCC[C@H]1C(=O)NCC#Cc1cn[nH]c1 ?
0.0
